Property: Percent Effect; scope: individual compounds
tested on: Wolbachia pipientis; test: Anti-Wolbachia Cell-Based Screen; format: functional; parameters: scale not given: in the data most compounds retested in dose-response had high values; conditions: 5 µM
Among all 48,000 compounds or so, about 13,000 (27%) showed an effect of 50% or more. The list shows a part of the results.
measure: Percent Effect (%)

compound=Cc1csc(CNC(=O)NCCc2ccc3c(c2)OCCO3)n1 tested_system="Wolbachia pipientis" measure="Percent Effect" test_result=-0.3298
compound=Cc1csc(CNC(=O)Cc2ccc3c(c2)OCCO3)n1 tested_system="Wolbachia pipientis" measure="Percent Effect" test_result=-1.573
compound="CCc1ccc(-c2nn3c(nc2=O)-c2ccccc2NC3C(=O)O)cc1 (stereo not drawn)" tested_system="Wolbachia pipientis" measure="Percent Effect" test_result=-8.075
compound="CN(C)S(=O)(=O)NCC(O)c1cc2ccccc2s1 (stereo not drawn)" tested_system="Wolbachia pipientis" measure="Percent Effect" test_result=-1.975
compound=CNS(=O)(=O)CC(=O)N(Cc1c(F)cccc1F)C1CCCC1 tested_system="Wolbachia pipientis" measure="Percent Effect" test_result=-5.167
compound=COc1ccc(-c2n[nH]cc2CN(C)CCCN2CCOCC2)c(F)c1 tested_system="Wolbachia pipientis" measure="Percent Effect" test_result=4.429
compound="Cn1cccc1C1CCCN1Cc1noc(C(C)(C)C)n1 (stereo not drawn)" tested_system="Wolbachia pipientis" measure="Percent Effect" test_result=89.29
compound=Cc1csc(CNC(=O)NCC2(c3ccc4c(c3)OCO4)CC2)n1 tested_system="Wolbachia pipientis" measure="Percent Effect" test_result=126.6
compound=COc1ccc(Cl)cc1CN1CC(n2cccn2)C1 tested_system="Wolbachia pipientis" measure="Percent Effect" test_result=-1.811
compound=Cc1csc(CNC(=O)Nc2ccc3c(c2)OCO3)n1 tested_system="Wolbachia pipientis" measure="Percent Effect" test_result=95.91
compound="CC(C)(C)c1nc(CN2CCCC2CCc2ccccc2)no1 (stereo not drawn)" tested_system="Wolbachia pipientis" measure="Percent Effect" test_result=0.152
compound="CC(c1ccco1)N(C)Cc1nc2c(cnn2C)c(=O)[nH]1 (stereo not drawn)" tested_system="Wolbachia pipientis" measure="Percent Effect" test_result=2.011
compound=COCCN1C(=O)[C@]2(CC[C@@H]3CN(C(=O)NCC(C)C)C[C@@H]32)N=C1C tested_system="Wolbachia pipientis" measure="Percent Effect" test_result=-10.16
compound="c1ccn2c(C3CCCN3Cc3nc(C4CC4)no3)nnc2c1 (stereo not drawn)" tested_system="Wolbachia pipientis" measure="Percent Effect" test_result=89.02
compound=CCSCCC(=O)NCc1cnn(-c2ccc(F)cc2F)c1 tested_system="Wolbachia pipientis" measure="Percent Effect" test_result=1.546
compound=Cn1ncc2c(=O)[nH]c(CN(Cc3ccco3)C3CC3)nc21 tested_system="Wolbachia pipientis" measure="Percent Effect" test_result=87.32
compound=O=C(CN1CCC2(CCCCC2)C1)NCC(F)(F)F tested_system="Wolbachia pipientis" measure="Percent Effect" test_result=-17.09
compound="CN(C)CC(=O)N1CCCC2(CCC(=O)N(CCc3c[nH]cn3)C2)C1 (stereo not drawn)" tested_system="Wolbachia pipientis" measure="Percent Effect" test_result=10.28
compound=Cc1csc(CNC(=O)N(C)Cc2ccc3c(c2)OCO3)n1 tested_system="Wolbachia pipientis" measure="Percent Effect" test_result=-4.172
compound=Cc1csc(CNC(=O)NCc2ccc3c(c2)OCCO3)n1 tested_system="Wolbachia pipientis" measure="Percent Effect" test_result=-13.77
compound="CCn1c(C2CCCN2Cc2noc(C(C)(C)C)n2)nc2ccccc21 (stereo not drawn)" tested_system="Wolbachia pipientis" measure="Percent Effect" test_result=117.3
compound="O=C(OCc1ccccc1)C1CCCN1Cc1nc(C2CC2)no1 (stereo not drawn)" tested_system="Wolbachia pipientis" measure="Percent Effect" test_result=13.28
compound=Cc1ccccc1-c1ncc(CNCc2csc(C(C)C)n2)s1 tested_system="Wolbachia pipientis" measure="Percent Effect" test_result=-1.637
compound=CC(C)CNC(=O)c1nc2c(s1)CCN(C(=O)c1ccc(Cl)cc1)CC2 tested_system="Wolbachia pipientis" measure="Percent Effect" test_result=-4.208
compound="CC(C)(C)c1nc(CN2CCCC2c2nnc3ccccn23)no1 (stereo not drawn)" tested_system="Wolbachia pipientis" measure="Percent Effect" test_result=104.6
compound=Cc1ncsc1CNC(=O)N(Cc1ccccc1)CC(C)(C)O tested_system="Wolbachia pipientis" measure="Percent Effect" test_result=-10.76
compound="Cc1cc(C)n(CC2CCCCN2CC(=O)Nc2nnc(C)s2)n1 (stereo not drawn)" tested_system="Wolbachia pipientis" measure="Percent Effect" test_result=-11.09
compound="Cc1cc(C)n(CC2CCCCN2CCC(=O)Nc2cc(C)on2)n1 (stereo not drawn)" tested_system="Wolbachia pipientis" measure="Percent Effect" test_result=105.6
compound=COc1cccc2c1N(Cc1noc(C(C)(C)C)n1)CCC2 tested_system="Wolbachia pipientis" measure="Percent Effect" test_result=5.292
compound=CCOCc1nnc2n1CCN(Cc1c(C)noc1C)CC2.O=C(O)C(F)(F)F tested_system="Wolbachia pipientis" measure="Percent Effect" test_result=-27.85
compound=CCn1cc(C(=O)N2CCCN(c3cccnn3)CC2)c2ccccc21 tested_system="Wolbachia pipientis" measure="Percent Effect" test_result=-8.81
compound="CC(=O)Nc1ccc(Cl)c(C(=O)N(C)C(C)c2nccs2)c1 (stereo not drawn)" tested_system="Wolbachia pipientis" measure="Percent Effect" test_result=18.16
compound="Cc1nc(C)c(C(C)NC(=O)NCCNc2cccc(F)c2C#N)s1 (stereo not drawn)" tested_system="Wolbachia pipientis" measure="Percent Effect" test_result=-3.673
compound="Cc1nn(C)c(C)c1C1CCCN1Cc1noc(C2CC2)n1 (stereo not drawn)" tested_system="Wolbachia pipientis" measure="Percent Effect" test_result=0.5745
compound="Cc1cc(C)n(CC2CCCN2CC(=O)NC2CCOCC2)n1 (stereo not drawn)" tested_system="Wolbachia pipientis" measure="Percent Effect" test_result=-0.8879
compound="Cc1ccc(C(NC(=O)CN2CCc3c(ncn3C)C2)C2CC2)cc1 (stereo not drawn)" tested_system="Wolbachia pipientis" measure="Percent Effect" test_result=0.6431
compound="CN(Cc1ccsc1)Cc1ccc(C2CCCCO2)o1 (stereo not drawn)" tested_system="Wolbachia pipientis" measure="Percent Effect" test_result=10.63
compound=Cc1n[nH]cc1CNCC1(c2ccccc2Cl)CCOCC1 tested_system="Wolbachia pipientis" measure="Percent Effect" test_result=10.52
compound=O=C(O)c1coc(COc2cccc(F)c2)n1 tested_system="Wolbachia pipientis" measure="Percent Effect" test_result=4.925
compound="CCc1nc(C2CCCN2Cc2nc(C3CC3)no2)no1 (stereo not drawn)" tested_system="Wolbachia pipientis" measure="Percent Effect" test_result=-2.971
compound=Cn1ncc2c(=O)[nH]c(CN(Cc3ccco3)C3CCCC3)nc21 tested_system="Wolbachia pipientis" measure="Percent Effect" test_result=8.263
compound=CC(=O)NCc1nnc2n1CCN(Cc1cccs1)C2.O=C(O)C(F)(F)F tested_system="Wolbachia pipientis" measure="Percent Effect" test_result=-7.249
compound="CC(N(C)Cc1nc2c(cnn2C)c(=O)[nH]1)C(C)(C)C (stereo not drawn)" tested_system="Wolbachia pipientis" measure="Percent Effect" test_result=1.899
compound=Cc1ccc(-c2ccc(C(=O)NCC(N)=O)c(F)c2)cc1 tested_system="Wolbachia pipientis" measure="Percent Effect" test_result=-9.702
compound="CC(Cc1ccccc1F)NC(=O)CCc1nc(-c2nnc[nH]2)no1 (stereo not drawn)" tested_system="Wolbachia pipientis" measure="Percent Effect" test_result=5.01
compound="CC(C)NC(=O)C1c2c(ncn2C(C)C)CCN1Cc1ccccc1.O=C(O)C(F)(F)F (stereo not drawn)" tested_system="Wolbachia pipientis" measure="Percent Effect" test_result=-4.449
compound="Cc1cc(C)n(CC2CCCCN2CC(=O)Nc2ccncc2)n1 (stereo not drawn)" tested_system="Wolbachia pipientis" measure="Percent Effect" test_result=9.261
compound="COc1ccc(CCN2CCCC(CN(C)Cc3ccc(C)o3)C2)cc1 (stereo not drawn)" tested_system="Wolbachia pipientis" measure="Percent Effect" test_result=-2.586
